# Target system: UniProtKB P28223
# Assay text: radioligand binding assay for 5-HT2A receptor ([3H]-ketanserin competitive binding)
# Run conditions: human cortex or recombinant 5-HT2A receptor expressed in CHO-K1 cells, read-out: binding affinity to 5-HT2A serotonin receptor expressed as IC50 value
Metric name: IC50

For the compound shown here, CN(C)CCOCc1cc2c(o1)-c1cc(Cl)ccc1Oc1ccccc1-2 , give the reported IC50. < 200 nM

====

# Target system: 5-HT2A receptor (Homo sapiens)
# Sequence (P28223 whole entry): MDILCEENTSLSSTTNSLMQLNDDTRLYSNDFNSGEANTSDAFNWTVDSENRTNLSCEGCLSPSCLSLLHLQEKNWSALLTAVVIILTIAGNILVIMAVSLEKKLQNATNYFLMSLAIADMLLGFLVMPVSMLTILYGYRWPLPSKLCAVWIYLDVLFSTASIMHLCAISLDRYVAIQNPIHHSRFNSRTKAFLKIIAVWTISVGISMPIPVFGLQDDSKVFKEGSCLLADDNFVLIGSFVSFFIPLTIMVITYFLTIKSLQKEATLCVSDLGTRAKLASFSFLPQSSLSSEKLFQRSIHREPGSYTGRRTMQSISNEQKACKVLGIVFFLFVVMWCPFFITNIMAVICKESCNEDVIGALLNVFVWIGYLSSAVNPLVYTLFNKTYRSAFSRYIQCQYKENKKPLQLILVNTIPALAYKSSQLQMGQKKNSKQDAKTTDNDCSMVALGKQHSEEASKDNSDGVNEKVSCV
# Assay text: radioligand binding assay for 5-HT2A receptor ([3H]-ketanserin competitive binding)
# Run conditions: human cortex or recombinant 5-HT2A receptor expressed in CHO-K1 cells, read-out: binding affinity to 5-HT2A serotonin receptor, Ki value
pKi: −log10 of the molar value.
Metric name: pKi

For the compound shown here, CN(C)CCOCc1cc2c(o1)-c1cc(Cl)ccc1Oc1ccccc1-2 , give the reported pKi. > 7.00

====

# Target system: 5-HT2C receptor (Homo sapiens, UniProt P28335)
# Sequence (P28335 33-458): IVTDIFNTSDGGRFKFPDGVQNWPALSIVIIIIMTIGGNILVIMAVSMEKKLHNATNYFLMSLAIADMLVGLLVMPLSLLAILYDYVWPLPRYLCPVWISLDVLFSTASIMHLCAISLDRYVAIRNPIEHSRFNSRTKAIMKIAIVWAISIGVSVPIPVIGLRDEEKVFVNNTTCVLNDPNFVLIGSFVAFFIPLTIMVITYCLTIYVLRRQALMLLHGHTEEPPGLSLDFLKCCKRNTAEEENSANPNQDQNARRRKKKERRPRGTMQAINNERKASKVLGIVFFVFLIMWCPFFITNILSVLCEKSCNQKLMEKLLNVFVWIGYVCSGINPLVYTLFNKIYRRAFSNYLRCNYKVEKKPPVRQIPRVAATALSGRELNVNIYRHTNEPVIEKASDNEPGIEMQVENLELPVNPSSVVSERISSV
# Assay text: radioligand binding assay for 5-HT2C receptor ([3H]-mesulergine competitive binding)
# Run conditions: choroid plexus or recombinant 5-HT2C receptor expressed in CHO-K1 cells, read-out: binding affinity to 5-HT2C serotonin receptor, Ki value
pKi: −log10 of the molar value.
Metric name: pKi

Lab note: need pKi for CN(C)CCOCc1cc2c(o1)-c1cc(Cl)ccc1Oc1ccccc1-2 on 5-HT2C receptor (Homo sapiens, UniProt P28335), anyone have it? > 7.00

====

# Target system: UniProtKB P28335
# Sequence (P28335 33-458): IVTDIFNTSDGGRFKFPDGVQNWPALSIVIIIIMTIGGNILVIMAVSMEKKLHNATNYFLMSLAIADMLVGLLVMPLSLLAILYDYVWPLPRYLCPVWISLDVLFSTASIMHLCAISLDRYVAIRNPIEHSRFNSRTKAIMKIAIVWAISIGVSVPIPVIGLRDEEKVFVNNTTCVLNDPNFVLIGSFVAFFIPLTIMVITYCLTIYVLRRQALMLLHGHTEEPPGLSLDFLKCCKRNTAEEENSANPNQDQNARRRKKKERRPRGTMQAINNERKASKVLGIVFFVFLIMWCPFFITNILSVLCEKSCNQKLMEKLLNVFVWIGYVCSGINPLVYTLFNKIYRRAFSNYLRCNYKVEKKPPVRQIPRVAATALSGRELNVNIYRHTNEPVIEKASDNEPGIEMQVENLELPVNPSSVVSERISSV
# Assay text: radioligand binding assay for 5-HT2C receptor ([3H]-mesulergine competitive binding)
# Run conditions: choroid plexus or recombinant 5-HT2C receptor expressed in CHO-K1 cells, read-out: binding affinity to 5-HT2C serotonin receptor expressed as IC50 value
# Protocol: […] A small concentration of a radioligand having a great affinity for binding to a receptor was incubated with a tissue sample enriched with a certain receptor (1-5 mg of tissue) in a buffered medium (0.2-5 mL). […] When a binding balance was achieved, the receptors to which the radioligand was bound were separated from those to which said ligand was not bound, and the radioactivity of the receptor/radioligand complex was measured. […]
pIC50: −log10 of the molar value.
Metric name: pIC50

For the compound shown here, CN(C)CCOCc1cc2c(o1)-c1cc(Cl)ccc1Oc1ccccc1-2 , give the reported pIC50. > 6.70

Taken from patent US20070173493A1.
